# subject of test: farnesyl protein transferase
# protocol notes: In vitro enzyme assay: inhibition of farnesyl protein transferase (FPT), [3H]farnesyl transfer to Ras-CVLS
Output satisfied for records whose IC50 is lower than 20 nM, not satisfied for records at or above 20 nM.

*Q* Please state whether IC50 is below 20 nM for `O=C(O)CCCCC(=O)N1CCC([C@H]2c3ncc(Br)cc3CCc3cc(Cl)cc(Br)c32)CC1`
*A* satisfied

*Q* Identify whether the molecule `NC(=O)CCCCC(=O)N1CCC([C@H]2c3ncc(Br)cc3CCc3cc(Cl)cc(Br)c32)CC1` records IC50 below 20 nM.
*A* satisfied

---
*Q* Quick check: IC50 of O=C(CCC(=O)N1CCC(C2c3ncc(Br)cc3CCc3cc(Cl)cc(Cl)c32)CC1)N1CCCC1 (single isomer, unassigned) under 20 nM?
*A* satisfied

*Q* Check if IC50 falls below 20 nM for NC(=O)N1CCC(C2c3ncc(Br)cc3CCc3cc(Cl)cc(Cl)c32)CC1 (single isomer, unassigned; (+)) .
*A* not satisfied

*Q* Hi there! Is IC50 for CC(C)(C)OC(=O)NCC(=O)N1CCC(C2c3ncc(Br)cc3CCc3cc(Cl)cc(Cl)c32)CC1 (stereo not shown) below 20 nM, do you know?
*A* not satisfied

*Q* In plain terms, does `COC(=O)CCCCCC(=O)N1CCC([C@H]2c3ncc(Br)cc3CCc3cc(Cl)cc(Br)c32)CC1` come in under 20 nM for IC50?
*A* satisfied

----------
Record form. Attribute: IC50. Fill in for each entry.
# subject of test: farnesyl protein transferase
# protocol notes: In vitro enzyme assay: inhibition of farnesyl protein transferase (FPT), [3H]farnesyl transfer to Ras-CVLS
Numbers only, in nM.

Here are 5 compounds together with their reported answers.
Input NCC(=O)N1CCC(C2c3ncc(Br)cc3CCc3cc(Cl)cc(Cl)c32)CC1 (single isomer, unassigned; (+)) . Output IC50: 1100

// sample `COC(=O)CCCC(=O)N1CCC([C@H]2c3ncc(Br)cc3CCc3cc(Cl)cc(Br)c32)CC1` , its IC50 was 19

Documented IC50 of CN(C)CC(=O)N1CCC(C2c3ncc(Br)cc3CCc3cc(Cl)cc(Cl)c32)CC1 (single isomer, unassigned) : 380

Consider CN(C)C(=O)CCC(=O)N1CCC(C2c3ncc(Br)cc3CCc3cc(Cl)cc(Cl)c32)CC1 (single isomer, unassigned) . Its measured IC50 is 15

Looking up O=C(CN1CCCC1=O)N1CCC(C2c3ncc(Br)cc3CCc3cc(Cl)cc(Cl)c32)CC1 (single isomer, unassigned) , I see its IC50 listed as 19

Field: next compound
Just so you know, measured IC50 for CN(C)CCCC(=O)N1CCC(C2c3ncc(Br)cc3CCc3cc(Cl)cc(Cl)c32)CC1 (single isomer, unassigned) came out at 6.5

----------
# subject of test: farnesyl protein transferase
# protocol notes: In vitro enzyme assay: inhibition of farnesyl protein transferase (FPT), [3H]farnesyl transfer to Ras-CVLS
Give pIC50 for every item shown.
Give bare numbers, as −log10 of the molar value.

Previously resolved entries follow.
Looking up `NC(=O)CCCCCC(=O)N1CCC([C@H]2c3ncc(Br)cc3CCc3cc(Cl)cc(Br)c32)CC1` , I found its pIC50 recorded as 8.48

# pIC50 (compound: O=C(CCN1C(=O)CCC1=O)N1CCC(C2c3ncc(Br)cc3CCc3cc(Cl)cc(Cl)c32)CC1 (single isomer, unassigned) ) is 7.12

Others:
Measured pIC50, CN(C)CCCCC(=O)N1CCC(C2c3ncc(Br)cc3CCc3cc(Cl)cc(Cl)c32)CC1 (single isomer, unassigned) : 7.66

----------
# System: farnesyl protein transferase
# protocol notes: In vitro enzyme assay: inhibition of farnesyl protein transferase (FPT), [3H]farnesyl transfer to Ras-CVLS
# Type: biochemical, rat (brain); human (expressed in E. coli)
# condition context: @ 0.06 μg/μL
metric: FPT inhibition (%)
Give bare numbers, in %.

For reference, reported FPT inhibition for O=C(CCCC(=O)N1CCC(C2c3ncc(Br)cc3CCc3cc(Cl)cc(Cl)c32)CC1)NCc1ccccc1 (single isomer, unassigned) [Example 21] stands at 35

# FPT inhibition of O=C(CCCC(=O)N1CCC(C2c3ncc(Br)cc3CCc3cc(Cl)cc(Cl)c32)CC1)Nc1ccccc1 (single isomer, unassigned) [Example 19] = 21

Look at each compound and report its FPT inhibition.
1. O=C(NCCCCC(=O)N1CCC(C2c3ncc(Br)cc3CCc3cc(Cl)cc(Cl)c32)CC1)c1ccccc1 (stereo not shown) [Example 22]
2. O=C(NCCCC(=O)N1CCC(C2c3ncc(Br)cc3CCc3cc(Cl)cc(Cl)c32)CC1)c1ccncc1 (single isomer, unassigned) [Example 24]

*A*
1. 41
2. 20

----------
# Tested on: Ras processing (val12-Ha-Ras-CVLS) in COS monkey kidney cells
# protocol notes: Cell-based assay: inhibition of Ras processing in COS cells (transient expression of val12-Ha-Ras-CVLS)
# condition context: Primates
For each entry below, report its pIC50 value.
One number for each entry, as −log10 of the molar value.

The observed pIC50 for O=C(O)CCCCCC(=O)N1CCC([C@H]2c3ncc(Br)cc3CCc3cc(Cl)cc(Br)c32)CC1 [Example 58] when tested with Ras processing (val12-Ha-Ras-CVLS) in COS monkey kidney cells stands at 6.52

Form field pIC50 for item CN(C)CCCC(=O)N1CCC(C2c3ncc(Br)cc3CCc3cc(Cl)cc(Cl)c32)CC1 (single isomer, unassigned) [Example 6] on Ras processing (val12-Ha-Ras-CVLS) in COS monkey kidney cells: 7.46

Next:
pIC50 for Ras processing (val12-Ha-Ras-CVLS) in COS monkey kidney cells with input NC(=O)CCCCCC(=O)N1CCC([C@H]2c3ncc(Br)cc3CCc3cc(Cl)cc(Br)c32)CC1 [Example 59] equals 7.82

----------
# subject of test: farnesyl protein transferase
# protocol notes: In vitro enzyme assay: inhibition of farnesyl protein transferase (FPT), [3H]farnesyl transfer to Ras-CVLS
metric: IC50 (nM)
Answers are plain numbers, in nM.

Here are 10 compounds together with their reported answers.
The compound CCN(CC)CCC(=O)N1CCC(C2c3ncc(Br)cc3CCc3cc(Cl)cc(Cl)c32)CC1 (single isomer, unassigned) [Example 8] showed IC50 equal to 14

Notebook: NC(=O)NCCCC(=O)N1CCC(C2c3ncc(Br)cc3CCc3cc(Cl)cc(Cl)c32)CC1 (single isomer, unassigned; (+)) [Example 31] , IC50 read as 58

// O=C(CCN1CCCCC1)N1CCC(C2c3ncc(Br)cc3CCc3cc(Cl)cc(Cl)c32)CC1 (single isomer, unassigned) [Example 9] : IC50 value = 6

Lab note: NCCCC(=O)N1CCC(C2c3ncc(Br)cc3CCc3cc(Cl)cc(Cl)c32)CC1 (single isomer, unassigned; (+)) [Example 27] gave IC50 of 130

GET /value?item= O=C(O)CCCC(=O)N1CCC([C@H]2c3ncc(Br)cc3CCc3cc(Cl)cc(Br)c32)CC1 [Example 52] &field=IC50 returns 44

For record COC(=O)CCCCC(=O)N1CCC([C@H]2c3ncc(Br)cc3CCc3cc(Cl)cc(Br)c32)CC1 [Example 54] the listed IC50 is 15

Lab note: O=C(O)CCC(=O)N1CCC([C@H]2c3ncc(Br)cc3CCc3cc(Cl)cc(Br)c32)CC1 [Example 49] gave IC50 of 270

Reported IC50 of CN(C)CCCC(=O)N1CCC(C2c3ncc(Br)cc3CCc3cc(Cl)cc(Br)c32)CC1 (single isomer, unassigned; (+)) [Example 2] : 4

So for NC(=O)CCCC(=O)N1CCC([C@H]2c3ncc(Br)cc3CCc3cc(Cl)cc(Br)c32)CC1 [Example 53] , the logged IC50 turned out to be 10

Item: O=C(O)CC(=O)N1CCC([C@H]2c3ncc(Br)cc3CCc3cc(Cl)cc(Br)c32)CC1 [Example 46] | IC50: 78

Field: IC50. Fill in for each record below.
1. CN(C)CCC(=O)N1CCC(C2c3ncc(Br)cc3CCc3cc(Cl)cc(Cl)c32)CC1 (single isomer, unassigned) [Example 5]
2. CCOC(=O)CC(=O)N1CCC([C@H]2c3ncc(Br)cc3CCc3cc(Cl)cc(Br)c32)CC1 [Example 45]
3. NC(=O)CCC(=O)N1CCC([C@H]2c3ncc(Br)cc3CCc3cc(Cl)cc(Br)c32)CC1 [Example 50]
4. CC(=O)NCCCC(=O)N1CCC(C2c3ncc(Br)cc3CCc3cc(Cl)cc(Cl)c32)CC1 (single isomer, unassigned) [Example 15]
5. NC(=O)CCC(=O)N1CCC(C2c3ncc(Br)cc3CCc3cc(Cl)cc(Cl)c32)CC1 (single isomer, unassigned) [Example 12]

*A*
1. 56
2. 28
3. 14
4. 63
5. 61
